The values you see were collected from the supplement of paper PMC10065799.

Biological target: Jak2 (UniProt O60674)
Sequence (O60674 whole entry, looked up): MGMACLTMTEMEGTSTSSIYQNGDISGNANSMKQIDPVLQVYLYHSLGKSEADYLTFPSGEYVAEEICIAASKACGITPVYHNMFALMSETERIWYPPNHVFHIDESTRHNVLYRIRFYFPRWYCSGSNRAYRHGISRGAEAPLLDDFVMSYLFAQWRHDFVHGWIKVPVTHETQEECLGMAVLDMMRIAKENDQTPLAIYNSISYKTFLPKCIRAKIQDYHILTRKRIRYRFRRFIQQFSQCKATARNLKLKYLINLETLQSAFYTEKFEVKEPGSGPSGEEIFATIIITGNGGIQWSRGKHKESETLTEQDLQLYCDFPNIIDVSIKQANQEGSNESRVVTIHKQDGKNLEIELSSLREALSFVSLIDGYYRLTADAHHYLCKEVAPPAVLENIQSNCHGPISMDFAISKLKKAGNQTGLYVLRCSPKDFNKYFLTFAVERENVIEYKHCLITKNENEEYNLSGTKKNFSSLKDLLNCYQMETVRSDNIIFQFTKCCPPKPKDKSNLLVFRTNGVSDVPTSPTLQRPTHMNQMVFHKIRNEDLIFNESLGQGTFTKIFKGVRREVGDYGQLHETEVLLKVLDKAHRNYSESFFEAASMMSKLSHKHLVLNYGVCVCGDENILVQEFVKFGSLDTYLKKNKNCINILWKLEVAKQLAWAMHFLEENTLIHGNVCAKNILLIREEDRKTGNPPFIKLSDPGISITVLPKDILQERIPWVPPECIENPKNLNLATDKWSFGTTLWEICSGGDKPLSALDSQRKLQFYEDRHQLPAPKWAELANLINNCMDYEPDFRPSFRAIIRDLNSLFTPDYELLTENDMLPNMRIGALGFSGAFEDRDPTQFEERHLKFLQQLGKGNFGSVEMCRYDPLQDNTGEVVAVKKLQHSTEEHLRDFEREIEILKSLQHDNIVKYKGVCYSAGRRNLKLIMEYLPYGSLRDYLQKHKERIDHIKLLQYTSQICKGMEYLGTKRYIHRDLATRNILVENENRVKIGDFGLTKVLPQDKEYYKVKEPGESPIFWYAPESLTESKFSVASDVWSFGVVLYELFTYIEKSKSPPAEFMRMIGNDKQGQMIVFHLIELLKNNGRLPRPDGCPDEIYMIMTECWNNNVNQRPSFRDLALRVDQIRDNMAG
Test: phosphorylation enrichment, bacterial display (enrichment ratio); higher = better substrate or ligand; peptides without Tyr show the background
Class assignment keyed on phosphorylation enrichment, ranges low class (below 0.6), middle class (0.6 to below 0.9), high class (0.9 or more)

Use these answered entries as a reference point.
| polymer_sequence | category |
| --- | --- |
| TKQLTYEEQDL [PIK3C3_Y310] | high class |
| VLICAYLLHRG [PTEN_Y138_M134L] | high class |
| TFQFKYPEGSS [TGM4_Y440_E437Q_YF] | middle class |

[ask] Any idea which band LSALDYKIFYY [WDPCP_Y210] is in?
[reply] high class

[ask] Another: IVAREYFSKAD [CAMK2B_Y107_E110K_YF]
[reply] low class

[ask] Another: GCRSKSVGLWG [KCNQ1_Y184_Y184S]
[reply] low class

[ask] Another: ISIFRYAKGQP [MPZ_Y82_H81R]
[reply] high class

[ask] Another: RLLRGHDQSAF [HLA-C_Y137_Y137H_YF]
[reply] middle class

[ask] Another: EDKSIYRRGAC [PRKCI_Y125_R130C]
[reply] low class

[ask] Another: GRVFVYHLSEQ [ITGAE_Y551_R552H_YF]
[reply] middle class

[ask] Another: FIATQYSLRPR [LBR_Y166_YF]
[reply] low class

---

Molecular target: SHP2-C SH2;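 also: peptide library displayed on the E. coli surface as eCPX fusions, selected cells deep-sequenced, score is each peptide's frequency after selection divided by its frequency in the input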
Test: SH2 binding enrichment of the phosphorylated peptide, bacterial display (enrichment ratio); higher = better substrate or ligand; peptides without Tyr show the background
observation_type: SH2 binding enrichment
Numbers only.

Look over these answered cases.
| polymer_sequence | SH2 binding enrichment |
| --- | --- |
| GGEAIYAAPFA [Abl_opt_1995] | 0.416 |
| KDDEKYLDVSR [MTM1_Y260_I264S] | 0.649 |
| EEQKKYYNATK [SCN5A_Y1494_M1498T] | 0.482 |
| NRNVRYLTLDI [AKR1C2_Y305] | 6.75 |
| QAQMDYRRLQP [MPL_Y591] | 0.63 |
| PEEKVYLSRGD [CRACR2A_Y141_H136P] | 0.529 |

Here's the next entry for you.
[ask] Please look up its SH2 binding enrichment: NLGQQYNSPQE [UMPS_Y432]
[reply] 0.602

---

Exercise: state measured phosphorylation enrichment for each of the sequences provided.
Test system: c-Abl (mouse)
Assay: phosphorylation enrichment, bacterial display (enrichment ratio); higher = better substrate or ligand; peptides without Tyr show the background

Look over these answered cases.
| polymer_sequence | observation_type | measured_result |
| --- | --- | --- |
| NFFDLYGGEKF [PTPN11_Y66_D61N_YF] | phosphorylation enrichment | 0.581 |
| ATVRPYRPFII [LRP5_Y1528_A1525V_YF] | phosphorylation enrichment | 0.505 |
| SKKSTYQALLD [GANC_Y43] | phosphorylation enrichment | 0.382 |
| ACCLLYRGDVV [TUBA4A_Y319] | phosphorylation enrichment | 0.482 |
| VIDGKYAFKPK [GTF2E2_Y137] | phosphorylation enrichment | 0.585 |
| RRIHSYRCHLW [VHL_Y112_G114C] | phosphorylation enrichment | 0.822 |

Please report phosphorylation enrichment for every entry that follows.
1. TTKAKYKTPIF [PLD2_Y573_T577I_YF]
2. EILLSDLRTGF [TGM1_Y365_Y365D_YF]
3. ISDEAYVMAGV [ERBB2_Y772_L768S]
4. FSQQTYYRVSN [ABCD1_Y180]

[reply]
1: 0.632; 2: 0.631; 3: 0.62; 4: 0.72

Please report phosphorylation enrichment for every entry that follows.
1. MEKEKYVSYIS [JMJD1C_Y596]
2. TNDMRYPMKSE [TGDS_Y302]
3. LQKNIYSEELR [LMNA_Y211_F206L]

[reply]
0.629
0.557
0.445
